Test system: OVCAR-3 ovarian
Experiment: NCI tumour cell line growth inhibition, 48 h
measured.attribute: TGI

{"columns": ["molecule", "tested.target", "TGI"],
 "data": [
  ["CN(C)CCCNC(=O)c1cc(NC(=O)c2cc(NC(=O)c3cc(NC(=O)CCc4c[nH]c5ccccc45)cn3C)cn2C)cn1C", "OVCAR-3 ovarian", "> 100 µM"],
  ["O=C(c1ccncc1)n1nc(-c2ccccc2)c(N=Nc2ccc([N+](=O)[O-])cc2)c1-c1ccccc1", "OVCAR-3 ovarian", "> 100 µM"],
  ["COc1cccc(-c2nc3c(C(=O)NCCN(C)C)cccc3[nH]2)c1", "OVCAR-3 ovarian", "> 75.9 µM"]
]}

Below: the item to evaluate.
*Q* For the record O=C1/C(=C\c2ccc(-c3ccc(Cl)cc3Cl)o2)SC2N=C(COc3ccc(Cl)cc3)NN12 (configuration not stated) , what value of TGI is listed for OVCAR-3 ovarian?
*A* > 100 µM

* * *

System: RPMI-8226 leukemia
Assay: NCI tumour cell line growth inhibition, 48 h
measured.attribute: GI50

Past entries and their recorded results:
{"columns": ["compound", "GI50"],
 "data": [
  ["Cc1ccc2c(N)c(C(=O)N[C@H]3CCc4cc(N5CC6CCC(C5)N6)ccc4C3)sc2n1", "764 nM"],
  ["Oc1cc2cccc[n+]2c2cccc(Cl)c12", "40400 nM"],
  ["O=C(C(Br)Br)C(Br)C(Br)c1ccccc1 (centres undefined)", "1540 nM"]
]}

Below: the item to evaluate.
*Q* Look at this compound and give its reported GI50. COc1ccc2[nH]c(Cl)c(/C=C3/C(=O)N(C)c4ccccc43)c2c1
*A* > 100000 nM

* * *

Tested on: SK-MEL-2 melanoma
Experiment: NCI tumour cell line growth inhibition, 48 h
TGI reference

Past entries and their recorded results:
{"columns": ["compound", "assay.result"],
 "data": [
  ["O=c1cc(-c2cccc(OC(F)(F)F)c2)[nH]c2cc3c(cc12)OCO3", "0.628 µM"],
  ["O=C1/C(=C\\c2cccc(Oc3ccccc3)c2)SC(c2ccccc2)N1c1ccc(Cl)cc1 (stereo not given)", "> 100 µM"],
  ["CCOC(=O)Oc1c(OC)cc(C(=O)O[C@@H]2C[C@@H]3CN4CCc5c([nH]c6cc(OC)ccc56)[C@H]4C[C@@H]3[C@H](C(=O)OC)[C@H]2OC)cc1OC", "28.3 µM"],
  ["S=C(Nc1cccc(Cl)c1)Nc1ccccn1", "> 100 µM"],
  ["CCN(CC)CCOc1ccc(/C=C2\\CC3C4CC=C5C[C@@H](N6CCCC6)CC[C@]5(C)C4CC[C@]3(C)[C@H]2O)cc1OC (stereo not given in full)", "> 100 µM"],
  ["COC(=O)C1=CC[C@@H]2C(C(=O)O)=CO[C@@H](OC3OC(CO)C(O)C(O)C3O)[C@H]12 (stereo not given in full)", "> 300 µM"],
  ["O=C(O)CN1CCN(CC(=O)O)CCN(CC(=O)O)CCN(CC(=O)O)CC1", "> 100 µM"],
  ["N=C1C(=N)c2ccccc2-c2ccccc21", "2.97 µM"]
]}

*Q* Look at this compound and give its reported TGI. O=C1CCC2(C=C(Br)C(=O)C(Br)=C2)O1
*A* 30.3 µM

*Q* Again, but for N#CC12C3C4CC5C6C4C1C6C(O)(C53)N2Cc1ccccc1 (stereo not given)
*A* > 100 µM

*Q* Again, but for CC(=O)/C=C/c1ccc(C2CC(C)=Nc3c(ccc4c3C(=O)c3ccccc3C4=O)N2)cc1 (stereo not given)
*A* > 100 µM

*Q* Again, but for CC(=O)OCC1OC(O[C@@H]2c3c(O)c4c(c(O)c3C3=C(NN(c5ccc([N+](=O)[O-])cc5[N+](=O)[O-])[Se]3=O)[C@@]2(C)O)C(=O)c2ccccc2C4=O)C(OC(C)=O)C(OC(C)=O)C1OC(C)=O (stereo not given in full)
*A* 0.615 µM

*Q* Again, but for C[C@]12CCC(=O)C(O)=C1CC[C@@H]1[C@@H]2CC[C@]2(C)C(=O)CC[C@@H]12
*A* > 100 µM

*Q* Again, but for COC(=O)C(Nc1ccc(OC)cc1)c1ccccc1 (stereo not given)
*A* > 100 µM

*Q* Again, but for COc1nc(C)cc2c(=O)n(-c3ccccc3)n(CCCN3CCN(c4ccc(Cl)cc4)CC3)c(=O)c12
*A* > 50 µM

The values you see were collected from PubChem BioAssay (NCI).
